# Affinity 3 μM per record follows
Target: human recombinant adenosine A3 receptors (Homo sapiens, UniProt P0DMS8)
Construct: host or cells: CHO-K1 (Chinese hamster ovary K1 cells)
Sequence (P0DMS8 1-318): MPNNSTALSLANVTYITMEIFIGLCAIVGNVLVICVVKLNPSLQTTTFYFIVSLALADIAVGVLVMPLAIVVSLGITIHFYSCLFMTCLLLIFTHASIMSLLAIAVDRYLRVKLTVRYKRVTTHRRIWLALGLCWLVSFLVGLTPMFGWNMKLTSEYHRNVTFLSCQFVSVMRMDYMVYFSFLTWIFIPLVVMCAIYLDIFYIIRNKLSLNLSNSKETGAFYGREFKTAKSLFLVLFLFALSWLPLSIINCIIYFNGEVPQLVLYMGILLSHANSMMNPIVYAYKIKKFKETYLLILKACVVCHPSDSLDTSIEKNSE
Assay: Test for affinity for adenosine A3 receptor ([125I]AB-MECA binding to CHO-K1 cell membranes)
Conditions: 3 μM trehalose compound, 0.5 nM [125I]AB-MECA, 60 min, 25° C.
recorded endpoint: Affinity 3 μM

compound="CCCCCCCC(CCCCC)C(=O)OC[C@H]1O[C@H](O[C@H]2O[C@H](COC(=O)C(CCCCC)CCCCCCC)[C@@H](O)[C@H](O)[C@H]2O)[C@H](O)[C@@H](O)[C@@H]1O (stereo partly shown)" system_tested="human recombinant adenosine A3 receptors (Homo sapiens, UniProt P0DMS8)" recorded_endpoint="Affinity 3 μM" observed_result=74
compound=CCCCC(CCCC)C(=O)OC[C@H]1O[C@H](O[C@H]2O[C@H](COC(=O)C(CCCC)CCCC)[C@@H](O)[C@H](O)[C@H]2O)[C@H](O)[C@@H](O)[C@@H]1O system_tested="human recombinant adenosine A3 receptors (Homo sapiens, UniProt P0DMS8)" recorded_endpoint="Affinity 3 μM" observed_result=14
compound=CCCCCC[C@@H](O)[C@@H](CCCCC)C(=O)NC[C@H]1O[C@H](O[C@H]2O[C@H](CNC(=O)[C@H](CCCCC)[C@H](O)CCCCCC)[C@@H](O)[C@H](O)[C@H]2O)[C@H](O)[C@@H](O)[C@@H]1O system_tested="human recombinant adenosine A3 receptors (Homo sapiens, UniProt P0DMS8)" recorded_endpoint="Affinity 3 μM" observed_result=29
compound=CCCCCC(CCCCC)C(=O)OC[C@H]1O[C@H](O[C@H]2O[C@H](COC(=O)C(CCCCC)CCCCC)[C@@H](O)[C@H](O)[C@H]2O)[C@H](O)[C@@H](O)[C@@H]1O system_tested="human recombinant adenosine A3 receptors (Homo sapiens, UniProt P0DMS8)" recorded_endpoint="Affinity 3 μM" observed_result=97

###

Biological target: human recombinant adenosine A3 receptors (Homo sapiens, UniProt P0DMS8)
Construct: host or cells: CHO-K1 (Chinese hamster ovary K1 cells)
Sequence (P0DMS8 1-318): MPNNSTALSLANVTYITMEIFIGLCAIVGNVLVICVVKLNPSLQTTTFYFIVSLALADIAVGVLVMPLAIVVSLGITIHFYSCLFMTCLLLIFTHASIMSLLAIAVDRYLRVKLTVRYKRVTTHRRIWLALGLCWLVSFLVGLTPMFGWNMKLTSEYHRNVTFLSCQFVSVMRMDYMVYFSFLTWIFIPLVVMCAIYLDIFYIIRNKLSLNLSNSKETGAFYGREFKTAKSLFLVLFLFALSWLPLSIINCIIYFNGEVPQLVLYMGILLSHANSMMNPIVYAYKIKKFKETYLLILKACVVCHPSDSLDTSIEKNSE
Test: Test for affinity for adenosine A3 receptor ([125I]AB-MECA binding to CHO-K1 cell membranes)
Settings: 10 μM trehalose compound, 0.5 nM [125I]AB-MECA, 60 min, 25° C.
recorded endpoint: Affinity 10 μM

compound="CCCCC(CCCC)C(=O)OC[C@H]1O[C@H](O[C@H]2O[C@H](COC(=O)C(CCCC)CCCC)[C@@H](O)[C@H](O)[C@H]2O)[C@H](O)[C@@H](O)[C@@H]1O [Production Example F-8]" recorded_endpoint="Affinity 10 μM" observed_result=72
compound="CCCCCC[C@@H](O)[C@H](CCCCC)C(=O)OC[C@H]1O[C@H](O[C@H]2O[C@H](COC(=O)[C@@H](CCCCC)[C@H](O)CCCCCC)[C@@H](O)[C@H](O)[C@H]2O)[C@H](O)[C@@H](O)[C@@H]1O [Production Example F-4]" recorded_endpoint="Affinity 10 μM" observed_result=91
compound="CCCCCC[C@@H](O)[C@@H](CCCCC)C(=O)NC[C@H]1O[C@H](O[C@H]2O[C@H](CNC(=O)[C@H](CCCCC)[C@H](O)CCCCCC)[C@@H](O)[C@H](O)[C@H]2O)[C@H](O)[C@@H](O)[C@@H]1O [Production Example F-15]" recorded_endpoint="Affinity 10 μM" observed_result=69
